Each recorded value in this set is attributed to patent US9221792B2.

Molecular target: PKM2 (Homo sapiens)
Sequence (P14618 whole entry): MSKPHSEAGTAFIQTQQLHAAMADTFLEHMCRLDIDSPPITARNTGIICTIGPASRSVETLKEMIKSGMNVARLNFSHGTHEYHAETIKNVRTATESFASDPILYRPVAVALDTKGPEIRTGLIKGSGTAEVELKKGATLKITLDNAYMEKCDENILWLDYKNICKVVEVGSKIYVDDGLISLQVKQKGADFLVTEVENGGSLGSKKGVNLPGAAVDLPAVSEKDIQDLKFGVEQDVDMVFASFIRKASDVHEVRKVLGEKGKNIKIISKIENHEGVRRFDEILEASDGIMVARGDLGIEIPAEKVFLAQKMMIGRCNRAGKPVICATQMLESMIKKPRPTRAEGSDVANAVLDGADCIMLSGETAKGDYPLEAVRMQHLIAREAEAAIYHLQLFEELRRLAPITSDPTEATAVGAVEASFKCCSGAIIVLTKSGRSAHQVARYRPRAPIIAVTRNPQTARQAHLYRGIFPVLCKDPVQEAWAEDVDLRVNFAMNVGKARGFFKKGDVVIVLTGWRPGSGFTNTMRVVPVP
Experiment: PKM2 Assay (activation, LDH-coupled NADH absorbance at 340 nm)
Type: biochemical
Settings: activation of PKM2; PKM2 50 ng/well, ADP 0.7 mM, PEP 0.15 mM, room temperature (25° C.); read-out: AC50
Listing of entries alongside the reported AC50.

Cc1cc(C(=O)N2CC(OCc3ccccc3)C2)ccc1NS(=O)(=O)c1cccc2cccnc12	100 to 1000 nM
O=C(Nc1ccccn1)OC1CN(C(=O)c2ccc(NS(=O)(=O)c3cccc4cccnc34)cc2)C1	1000 to 10000 nM
COc1ccccc1OC1CN(C(=O)c2ccc(NS(=O)(=O)c3cccc4cccnc34)c(C)c2)C1	< 100 nM
COc1ccccc1OC1CN(C(=O)c2ccc(NS(=O)(=O)c3cccc4cccnc34)c(F)c2)C1	100 to 1000 nM
CC(C)NC(=O)OC1CN(C(=O)c2ccc(NS(=O)(=O)c3cccc4cccnc34)c(F)c2)C1	1000 to 10000 nM

// field: AC50; key: O=C(NC1CN(C(=O)c2ccc(S(=O)(=O)Nc3cccc4cccnc34)cc2)C1)c1ccccn1 ; value = > 10000 nM
